# Test system: EKVX NSCLC
# Method description: NCI-60 one-dose screen, 48 h (100 = growth as untreated, 0 = no growth, -100 = all killed)
# Details: 10 µM unless noted
The panel holds about 83,000 compounds, 20% with a hit somewhere; the sample as a whole holds those more often.
Note: every record was labeled by where its growth sits among small value (below 50%), mid value (50% to below 90%), large value (90% or more)

Compound	System under test	Class assignment
ClC1C2CC(c3ccccc32)C1Cl (stereo unspecified)	EKVX NSCLC	large value
CCCCOc1ccc(C(C)(C)c2ccc(OCCCC)cc2)cc1	EKVX NSCLC	large value
Cc1nn(-c2ccccc2)c2c1oc(=O)c1cc(Cl)ccc12	EKVX NSCLC	large value
O=c1[nH]c(=O)n(C2CC(O)C(CO)O2)cc1C(F)(F)F (stereo unspecified)	EKVX NSCLC	mid value
Cc1ccc(C(C)C)cc1NC(=O)Nc1ccc([N+](=O)[O-])cc1	EKVX NSCLC	small value
NC(=O)N/N=C/c1ccc(Br)o1	EKVX NSCLC	large value
Oc1ccc(Cc2ccc(O)c(C3CC(c4ccc(Cl)cc4)=NN3)c2)cc1C1CC(c2ccc(Cl)cc2)=NN1 (stereo unspecified)	EKVX NSCLC	small value
CN(C)CCCN1c2nc3ccccc3cc2Sc2cc3ccccc3nc21	EKVX NSCLC	small value
COC(=O)CC1=C(C)/C(=C/c2[nH]c(-c3ccc[nH]3)cc2OC)N=C1C	EKVX NSCLC	small value
Cc1c(NCc2nnc3n(Cc4ccccc4)c(=O)c4c5c(sc4n23)CCCC5)c(=O)n(-c2ccccc2)n1C	EKVX NSCLC	mid value
CCC(c1ccccc1)c1noc(CCN(CC)CC)n1 (stereo unspecified)	EKVX NSCLC	large value
C[N+]1(CCC[N+]2(C)C[C@@H]3[C@H](C2)[C@@H]2C=C[C@H]3C2)CCOCC1 (stereo partly specified)	EKVX NSCLC	large value
O=C1C[C@@H]2/C(=C(O)\C=C\c3ccccc3)C(=O)C=C[C@@H]2O1	EKVX NSCLC	small value
CN1C(=O)/C(=C/c2nc(-c3cccc(F)c3)n3ccccc23)c2ccccc21	EKVX NSCLC	mid value
Clc1ccc(-c2nc(-c3cccs3)no2)c(Cl)c1	EKVX NSCLC	mid value
O=C(CN1CCCCC1)Sc1nnc2sc3ccccc3n12	EKVX NSCLC	large value
